Listed here: items and their measured Boiling Point.
# Experiment Description: Boiling point of fragrance raw materials
# Settings: Example 2, fragrances for thermo boost performance; head range 230.1 a 300.0
Quantity Measured: Boiling Point (°C)

>>> number("COc1cc(C=O)ccc1O")
274.3
>>> number("CCCCCCC1CCC(=O)O1 (centres unmarked)")
281.7
>>> number("CCCC1CCC(=O)O1 (centres unmarked)")
230.3
>>> number("O=Cc1ccc2c(c1)OCO2")
257
>>> number("CCCCC1CCC(=O)O1 (centres unmarked)")
248.4
>>> number("COC(=O)c1ccccc1N [METHYL ANTHRANILATE (=130085), METHYL ANTHRANILATE]")
263.6
>>> number("c1ccc2[nH]ccc2c1")
250
>>> number("CCCC1CCCC(=O)O1 (centres unmarked)")
250
>>> number("CCc1occc(=O)c1O")
283.4
>>> number("C=CCOC(=O)COC1CCCCC1")
254.9
>>> number("CCOc1cc(COC)ccc1O [METHYL DIANTILIS]")
282.4
>>> number("COC(=O)c1ccccc1O [METHYL SALICYLATE PF, METHYL SALICYLATE]")
252.2
>>> number("CCCCCC1CCCC(=O)O1 (centres unmarked)")
283.2
>>> number("CC(C)(CO)Cc1ccccc1")
260.6
>>> number("CCCCCC1CCC(=O)O1 (centres unmarked)")
265.5
>>> number("COc1cc(C)ccc1O")
230.4
>>> number("CCOC(=O)COc1ccccc1 [ETHYL PHENOXY ACETATE]")
252.8
>>> number("COc1nccnc1CC(C)C")
236.5
>>> number("O=c1ccc2ccccc2o1")
290.7
>>> number("CC/C=C/CC/C=C/CO")
231.6
>>> number("CCOC(=O)Cc1ccccc1 [ETHYL PHENYL ACETATE]")
234.3
>>> number("CCCCC1CCCC(=O)O1 (centres unmarked)")
267
>>> number("CC=Cc1ccc(O)c(OC)c1")
270.6

###

# Experiment Description: LogP of fragrance raw materials
# Settings: Example 1, fragrances for long lasting performance; head range 1.00 a 3.00
Quick reference: logP of the listed items.
Quantity Measured: logP

>>> number("CCC/C=C/C=O [HEXENAL TRANS-2]")
1.58
>>> number("CCCCCCCC=O")
2.78
>>> number("CCCC(C)C(=O)OCC (stereo not drawn) [MANZANATE]")
2.76
>>> number("CC/C=C\\CCOC(C)OCC (stereo not drawn)")
2.95
>>> number("CC(CC=O)c1ccccc1 (stereo not drawn)")
2.45
>>> number("Cc1ccc(O)cc1")
2.06
>>> number("CCCCCC#CC(=O)OC [METHYL HEPTIN CARBONATE]")
2.6
>>> number("CC/C=C\\CCOC(=O)OC")
2.47
>>> number("CC(=O)c1ccc(C)cc1")
2.22

###

# Experiment Description: Boiling point of fragrance raw materials
# Settings: Example 1, fragrances for long lasting performance; head range 1.00 a 230.0
Structures can show the parent of a compound that is named as a salt.
Quantity Measured: Boiling Point

>>> result("CC(=O)OC1CCCCC1 [CYCLOHEXYL ACETATE]")
"179.4 °C"
>>> result("O=CCc1ccccc1")
"201.5 °C"
>>> result("COc1nccnc1C(C)C")
"217.8 °C"
>>> result("CC1=CC(C)C(C=O)CC1 (centres unmarked) [VERTOCITRAL]")
"200.5 °C"
>>> result("CC(=O)c1ccccc1")
"189.8 °C"
>>> result("CC12CCC(C1)C(C)(C)C2O (centres unmarked)")
"210 °C"
>>> result("CCCCCC(=O)OC [METHYL CAPROATE]")
"148.4 °C"
>>> result("COC(=O)c1ccccc1 [METHYL BENZOATE]")
"195.9 °C"
>>> result("COc1ccc(C(C)=O)cc1")
"229.5 °C"
>>> result("COc1ccc(C)cc1")
"170.8 °C"
>>> result("O=Cc1ccccc1 [BE[…], BENZALDEHYDE]")
"181.2 °C"
>>> result("CCOC(=O)CC [ETHYL PROPIONATE]")
"102.3 °C"
>>> result("CCCCCCCC=O")
"176 °C"
>>> result("COC(=O)Cc1ccccc1 [METHYL PHENYLACETATE]")
"215.6 °C"
>>> result("O=COCc1ccccc1 [BENZYL FORMATE]")
"197.8 °C"
>>> result("CC(=O)c1ccc(C)cc1")
"209.7 °C"
>>> result("CC/C=C\\CC/C=C/C=O [NONADIENAL TRANS,CIS-2,6]")
"208.7 °C"
>>> result("CCCC(C)C(=O)OCC (centres unmarked) [MANZANATE]")
"157.1 °C"
>>> result("OCCc1ccccc1 [PHENYLETHYL ALCOHOL BA FREE, PHENYLETHYL ALCOHOL]")
"224.9 °C"
>>> result("CC1(C)[C@@H]2CC[C@@]1(C)[C@H](O)C2 (racemic)")
"210 °C"
>>> result("Cc1ccc(O)cc1")
"190.8 °C"
>>> result("CCCCCOC(C)=O [AMYL ACETATE N]")
"148.4 °C"
>>> result("CC(=O)CCC=C(C)C")
"164.4 °C"
>>> result("COC(OC)C(C)c1ccccc1 (centres unmarked) [HYDRATROPIC ALDEHYDE DIMETH.ACET]")
"227.2 °C"
>>> result("CC/C=C\\CCOC(C)OCC (centres unmarked)")
"201.4 °C"
>>> result("CCCCCC(=O)OCC [ETHYL CAPROATE]")
"170.1 °C"
>>> result("CC/C=C\\CCOC(C)=O [HEXENYL ACETATE CIS-3]")
"176.6 °C"
>>> result("CC(=O)C1CCCC(C)(C)C1 (centres unmarked)")
"197.4 °C"
>>> result("C=CCOC(=O)COCCC(C)C [ALLYL AMYL GLYCOLATE]")
"217.7 °C"
>>> result("CCCCCCC(C)=O")
"163.6 °C"
>>> result("CC(CC=O)c1ccccc1 (centres unmarked)")
"228.4 °C"
>>> result("COc1ccc(C=O)cc1")
"221.6 °C"
>>> result("CC(=O)OCC=C(C)C [PRENYL ACETATE]")
"149.2 °C"
>>> result("CC(=O)OC(C)c1ccccc1 (centres unmarked) [STYRALYL ACETATE]")
"223.1 °C"
>>> result("CC/C=C\\CCOC(=O)OC")
"213 °C"
>>> result("CCCCCCOC(C)=O [HEXYL ACETATE]")
"170.1 °C"
>>> result("CCCC(=O)OCC [ETHYL BUTYRATE]")
"125.8 °C"
>>> result("CC1=CC(C)C(C=O)CC1 (centres unmarked) [LIGUSTRAL]")
"200.5 °C"
>>> result("CCCCCC(=O)CC")
"163.6 °C"
>>> result("CCCCCC#CC(=O)OC [METHYL HEPTIN CARBONATE]")
"205.3 °C"
>>> result("CCCCOC(C)=O [BUTYL ACETATE]")
"125.8 °C"
>>> result("COC(Cc1ccccc1)OC")
"219.8 °C"
>>> result("Cc1csc(C(C)C)n1")
"198 °C"
>>> result("CC(=O)OCC(C)C [ISOBUTYL ACETATE]")
"111.7 °C"
>>> result("CC(=O)c1nccs1")
"209 °C"
>>> result("CC(=O)OCCC(C)C [ISOAMYL ACETATE]")
"134.9 °C"
>>> result("CCOC(=O)c1ccccc1 [ETHYL BENZOATE]")
"215.6 °C"
>>> result("CC(=O)OCc1ccccc1 [BENZYL ACETATE]")
"215.6 °C"
>>> result("O=COCCc1ccccc1 [PHENYLETHYL FORMATE]")
"217.3 °C"
>>> result("CCC/C=C/C=O [HEXENAL TRANS-2]")
"139.2 °C"

###

# Experiment Description: LogP of fragrance raw materials
# Settings: Example 2, fragrances for thermo boost performance; head range 0.00 a 3.00
Quantity Measured: logP

>>> result("CCCCCCC1CCC(=O)O1 (centres unmarked)")
2.57
>>> result("CC/C=C/CC/C=C/CO")
2.87
>>> result("CCCCCC1CCCC(=O)O1 (centres unmarked)")
2.57
>>> result("CCOc1cc(COC)ccc1O [METHYL DIANTILIS]")
1.61
>>> result("CCCC1CCC(=O)O1 (centres unmarked)")
1.09
>>> result("CCc1occc(=O)c1O")
0.3
>>> result("O=Cc1ccc2c(c1)OCO2")
1.77
>>> result("CCCCC1CCCC(=O)O1 (centres unmarked)")
2.08
